Reference source for all entries: paper PMC10328973

Study Target: T1, UKNP4.1.1 E2E1-I53-50A trimer (Hepatitis C virus genotype 4a, strain …, UniProt A0A0U3JDN1, stabilised)
T1 construct: also called UKNP4.1.1 E2E1 trimer; source: HEK293F, co-transfected with furin, purified (Strep-TactinXT, SEC); copies: 3 + 3
Assay: ELISA
Settings: both partners purified
Parameter Measured: binding result

- Binder: "HEPC74 S54L (antibody, V domains shown, human IgG1; source: HEK293F, transfected, purified (protein A/G)) VH: QVQLVQSGAEVKKPGSSVKVSCTTSGGTYINYAISWVRQAPGQGLEWVGGMSPILNTPKYAQKFQGRVTITADESTSTTYMELSSLRPEDTAVYYCARDLLKYCGGGNCHSLLVDPWGQGTLVTVSS VL: DIVMTQSPSTLSASVGDRVTISCRASQSISSWLAWYQQKPGRAPKLLIYKASSLETGVPSRFSGSGSGTEFTLTISSLQPDDFATYYCQHYNTYLFTFGPGTKVDLK"
  Parameter Measured: "binding result"
  Observed: "binds"
- Binder: "HEPC3 (antibody, V domains shown, also called mature HEPC3; source: HEK293F, transfected, purified (protein A/G)) VH: QVQLVQSGAEVKKPGSSVKVSCKASGGTLNSYEITWVRQAPGQGLEWMGGITPIFETTYAQKFQGRVTITADESTSTTYMELSSLRPEDTAVYYCARDGVRYCGGGRCYNWFDPWGQGTLVTVSS VL: DIQMTQSPSSLSASVGDRVTITCRAGQNINNYLNWYQQKPGKAPKVLIYAASNLQSGVPSRFSGSGSGTDFTLTISSLQPEDFATYYCQQSHSTVRTFGQGTKVEIK"
  Parameter Measured: "binding result"
  Observed: "binds"
- Binder: "AR3C (antibody, V domains shown, also called mature AR3C; conventional AR3C; source: HEK293F, transfected, purified (protein A/G)) VH: VQLLEQSGAEVKKPGSSVKVSCETSGGTFDNYALNWVRQAPGQGLEWIGGVVPLFGTTRNAQKFQGRVTISDDKSTGTGHMELRSLRSEDTAVYYCVRSVTPRYCGGGFCYGEFDYWGQGTLVTVSS VL: EIELTQSPATLSVSPGERATLSCRASQSVSSNLAWYQQKPGQAPRLLIYGASTRATGIPARFSGSGSGTEFTLTVSRLEPEDSAVYFCQQYYRSPLTFGGGTKVEIK"
  Parameter Measured: "binding result"
  Observed: "binds"
